# Test system: E. coli DH5α
# ASSAY INFO: Antibacterial activity: MIC and growth curve against E. coli DH5α in 96-well plate
# Type: cell-based
# TEST PARAMETERS: minimal inhibitory concentration against E. coli DH5α; 96-well plate, 5×10^5 CFU/mL, 37° C., judged after 8 h
PARAMETER MEASURED: MIC (µg/mL)

[[record]]
substance = "PRT6 (TRKLCSLDNGDCDQFCHEEQNSVVCSCARGYTLADNGKACI; listed as Homo sapiens)"
quantity_unit = "µg/mL"
val = 50

[[record]]
substance = "PRT910 (EIDECLSHPCQNGGTCLDLPNTYKCSCPRGTQGVHCE; listed as Homo sapiens)"
quantity_unit = "µg/mL"
val = 50

[[record]]
substance = "PRT995 (ETNECASAPCLNHADCHDLLNGFQCICLPGFSGTRCE; listed as Homo sapiens)"
quantity_unit = "µg/mL"
val = 12.5

[[record]]
substance = "PRT643 (RVVICHLPCMNGGQCSSRDKCQCPPNFTGKLCQ; listed as Homo sapiens)"
quantity_unit = "µg/mL"
val = 12.5

[[record]]
substance = "PRT2 (DQLICVNENGGCEQYCSDHTGTKRSCRCHEGYSLLADGVSCT; listed as Homo sapiens)"
quantity_unit = "µg/mL"
val = 25

[[record]]
substance = "PRT248 (DVDECSARRGGCPQRCVNTAGSYWCQCWEGHSLSADGTLCV; listed as Homo sapiens)"
quantity_unit = "µg/mL"
val = 12.5

[[record]]
substance = "PRT1176 (NIDDCSPNNCSHGGTCQDLVNGFKCVCPPQWTGKTCQ; listed as Homo sapiens)"
quantity_unit = "µg/mL"
val = 12.5

[[record]]
substance = "PRT254 (PCLEGGTCILSPKGASCNCPHPYTGDRCE; listed as Homo sapiens)"
quantity_unit = "µg/mL"
val = 25

[[record]]
substance = "PRT1145 (KINDCTSIPCMNEGFCQKSAHGFTCICPRGYTGAYCE; listed as Homo sapiens)"
quantity_unit = "µg/mL"
val = 12.5

[[record]]
substance = "PRT403 (DNDECSAQPGPCGAHGHCHNTPGSFRCECHQGFTLVSSGHGCE; listed as Homo sapiens)"
quantity_unit = "µg/mL"
val = 12.5

[[record]]
substance = "PRT117 (DVDECALGRSPCAQGCTNTDGSFHCSCEEGYVLAGEDGTQCQ; listed as Homo sapiens)"
quantity_unit = "µg/mL"
val = 12.5

[[record]]
substance = "PRT45 (SINSCPNNCSGHGKCTTSVSVPSQVYCECDKYWKGEACD; listed as Homo sapiens)"
quantity_unit = "µg/mL"
val = 50

[[record]]
substance = "PRT1202 (GYDFCSERHNCMENSICRNLNDRAVCSCRDGFRALREDNAYCE; listed as Homo sapiens)"
quantity_unit = "µg/mL"
val = 50

[[record]]
substance = "PRT263 (CSKNNGGCSPYATCKSTGDGQRTCTCDTAHTVGDGLTC; listed as Homo sapiens)"
quantity_unit = "µg/mL"
val = 25

[[record]]
substance = "PRT644 (DINECQLQGVCPNGECLNTMGSYRCTCKIGFGPDPTFS; listed as Homo sapiens)"
quantity_unit = "µg/mL"
val = 25

[[record]]
substance = "PRT219 (DIDECRTSSYLCQYQCVNEPGKFSCMCPQGYQVVRSRTCQ; listed as Homo sapiens)"
quantity_unit = "µg/mL"
val = 12.5

